Each entry below carries its recorded MIC.
Tested on: Staphylococcus epidermidis
experimental-protocol: Antibacterial activity against Staphylococcus epidermidis ATCC 155
Assay type: functional
Just the number please, in µg/mL, no unit attached.

Answered examples (2):
COc1ccc(C(=O)/C=C/C(=O)N2CCN(c3ccc(N4C[C@H](CNC(C)=O)OC4=O)cc3F)CC2)cc1 | 0.25
CC(=O)/C=C/C(=O)N1CCN(c2ccc(N3C[C@H](CNC(C)=O)OC3=O)cc2F)CC1 | 0.25

Endpoint output: MIC of CC(=O)NC[C@H]1CN(c2ccc(N3CCN(C(=O)/C=C/c4ccccc4)CC3)c(F)c2)C(=O)O1 . Value?
1

Endpoint output: MIC of CC(=O)NC[C@H]1CN(c2ccc(N3CCN(C(=O)/C=C/C(=O)c4cccc5ccccc45)CC3)c(F)c2)C(=O)O1 . Value?
2
